Listed below: In vitro activity (%) compared with native peptide: vs GLP-1 values for each entry.
Target: human GLP-1 receptor (human, UniProt P43220 24-463)
Assay: cell-based or functional assay
Positions of bridges follow the written chain, without caps; N, C: chain ends. Non-standard residues stand in square brackets, D forms with d. No end group written: not given here. *: point of attachment. Acetyl(2-(4-imidazolyl)) = O=C(Cc1c[nH]cn1)*; Aib = CC(C)(N)C(=O)O
Metric name: In vitro activity (%) compared with native peptide: vs GLP-1

# Binder, Value observed
records = [
    ("{Acetyl(2-(4-imidazolyl))}-[Aib]QGTFTSDYSKYLDEKRQKEFVQWLLDTC (bridge 15-19; not fully specified) [triple agonist of SEQ ID NO: 82]", 9.5),
    ("H[Aib]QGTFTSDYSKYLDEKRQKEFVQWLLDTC (bridge 16-20; not fully specified) [triple agonist of SEQ ID NO: 52]", 44.1),
    ("H[Aib]QGTFTSDVSSYLLGQQQKEFIAWLVKGGGPSSGAPPPSC (not fully specified) [triple agonist of SEQ ID NO: 5]", 42.1),
    ("{Acetyl(2-(4-imidazolyl))}-GEGTFISDLSKYMDEQAVQLFVEWLMAGGPSSGAPPPSHG (not fully specified; also: ring from underlined residues, positions not shown) [triple agonist of SEQ ID NO: 12]", 0.4),
]

Source: patent US20230372448A1
